- MEASUREMENT TARGET: Muscarinic acetylcholine receptor M1 (Homo sapiens)
- Sequence (P11229 whole entry): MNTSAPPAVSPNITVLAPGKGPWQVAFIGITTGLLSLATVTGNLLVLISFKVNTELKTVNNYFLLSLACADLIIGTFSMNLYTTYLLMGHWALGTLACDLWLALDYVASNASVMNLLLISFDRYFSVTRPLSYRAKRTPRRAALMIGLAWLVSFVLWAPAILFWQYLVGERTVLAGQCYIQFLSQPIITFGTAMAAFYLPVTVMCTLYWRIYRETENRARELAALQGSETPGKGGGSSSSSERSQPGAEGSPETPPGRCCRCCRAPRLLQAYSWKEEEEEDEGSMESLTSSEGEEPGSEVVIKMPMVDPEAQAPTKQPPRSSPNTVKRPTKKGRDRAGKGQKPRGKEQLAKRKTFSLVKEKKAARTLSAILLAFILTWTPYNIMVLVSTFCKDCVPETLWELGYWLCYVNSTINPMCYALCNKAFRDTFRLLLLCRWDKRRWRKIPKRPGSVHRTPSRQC
- RUN DESCRIPTION: Effective concentration required for stimulation of phosphoinositide hydrolysis in A9L cells expressing human m1 receptor
- Format: functional, cell-based
VALUE TYPE: EC50 (nM)
Give a bare numeral; the unit nM is implied.

EC50 in this record for C(#Cc1ccccc1)CSc1nsnc1[C@H]1CN2CCC[C@H]1C2 : 0.2

====

So I've got IC50 readings for Muscarinic acetylcholine receptor, take a look.
Give a bare numeral; the unit µM is implied.

Sample answers from the record:
>>> print(df.to_string())
                                   molecule                 measurement_target  measured_value
0  C(#Cc1ccccc1)COc1nsnc1[C@H]1CN2CCC1C2 (stereo partly specified)  Muscarinic acetylcholine receptor          0.0008
1  C(#Cc1ccccc1)COc1nsnc1C1CN2CCC1CC2 (stereo unspecified)  Muscarinic acetylcholine receptor          0.0047
2       C(#Cc1ccccc1)COc1nsnc1C12CN3CC1C2C3  Muscarinic acetylcholine receptor           0.014

IC50 in this record for CCCCCCCOc1nsnc1C1=CCCN(C)C1 : 0.0062

IC50 in this record for C(#Cc1ccccc1)COc1nsnc1[C@H]1CN2CCC[C@@H]1C2 : 0.078

IC50 in this record for CCCCCCOc1nsnc1[C@@H]1CN2CC[C@H]1C2 (stereo in doubt; 13) : 0.016

Cited source: ChEMBL document CHEMBL1131552
